Readings of rhesus TNF neutralization IC50 (L929 bioassay) for the listed binders
Target: Rhesus/Macaque TNF (rhesus/macaque, UniProt P48094 77-233)
Sequence (P48094 77-233 limits assumed): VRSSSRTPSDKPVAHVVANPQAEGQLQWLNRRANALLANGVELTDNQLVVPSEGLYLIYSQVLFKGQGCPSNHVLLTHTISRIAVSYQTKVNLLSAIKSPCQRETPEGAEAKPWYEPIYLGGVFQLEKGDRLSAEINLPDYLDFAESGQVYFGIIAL
Assay: cell-based or functional assay
A number alone suffices; assume nM.

{"columns": ["binder", "endpoint-result"],
 "data": [
  ["hMAK195-AM24 (antibody, V domains shown) VH: EVQLVESGGGLVQPGGSLRLSCAASGFTFSNYGVEWVRQAPGKGLEWVSGIWADGSTHYADTVKSRFTISRDNSKNTLYLQMNSLRAEDTAVYYCAREWQHGPVAYWGQGTLVTVSS VL: DIQMTQSPSSLSASVGDRVTITCKASQLVSSAVAWYQQKPGKAPKLLIYWASTLHTGVPSRFSGSGSGTDFTLTISSLQPEDFATYYCQQHYRTPFTFGQGTKLEIKR", 0.557]
]}

Proceed to the following item.
Which value of rhesus TNF neutralization IC50 (L929 bioassay) has been reported for hMAK195-AM22 (antibody, V domains shown) VH: EVQLVESGGGLVQPGGSLRLSCAASGFTFSNYGVTWVRQAPGKGLEWVSMIWADGSTHYASSVKGRFTISRDNSKNTLYLQMNSLRAEDTAVYYCAREWQHGPVAYWGQGTLVTVSS VL: DIQMTQSPSSLSASVGDRVTITCRASQLVSSAVAWYQQKPGKAPKLLIYWASTRHSGVPSRFSGSGSGTDFTLTISSLQPEDFATYYCQQHYRTPFTFGQGTKLEIKR in the records?
0.271
